Reported Kd values for a set of binders
Target: human full-length VWF (human, UniProt P04275 764-2813)
Assay: SPR, Biacore T200, antibody captured on Protein A, full-length VWF as analyte, single-cycle kinetics
EXPERIMENTAL READOUT: Kd (pM)

* 1-D5_H2_L0 (antibody, human IgG1, kappa, V domains shown, humanised, human IgG1 kappa) VH: QQQLVESGGGVVQPGRSLRLSCAASGFSLNNYIMGWVRQAPGKGLEYIGIISTGGSTYYASWAKGRFTISRDSNTMYLQMNSLRAEDTATYFCARGGSSAGAGFNIWGQGTLVTVSS VL: DIQMTQSPSSLSASVGDRVTITCQASQSINSGLAWYQQKPGKAPKLLIYKASTLASGVPSRFSGSGSGTDFTLTISSLQPEDFATYYCQSYHYISANGATFGGGTKVEIKT | 7.66
* 4-H3_H3_VL-par (antibody, human IgG1, kappa, V domains shown, also called 4-H3_H3 (hIgG1)) VH: QVQLVESGGGVVQPGRSLRLSCAASGIDLTSNAMNWVRQAPGKGLEWIGGIYGHDTSYYAAWAKGRFTISRDNSKNTVYLQMNSLRAEDTAVYYCARGFIYFDIWGQGTLVTVSS VL: AYDMTQTPPSLSASVGETVRIRCLASEDIASGISWYQQKPGKPPTLLIYGASNLESGVPPRFSGSGSGTDYTLTIGGVQAEDAATYYCLGGYSFSSNGLTFGAGTKVEIKT | 29.4
* 4-H3_H4_L1 (antibody, human IgG1, kappa, V domains shown, humanised, human IgG1 kappa) VH: QVQLVESGGGVVQPGRSLRLSCAASGIDLTSNAMNWVRQAPGKGLEWVAGIYGHDTSYYAAWAKGRFTISRDNSKNTLYLQMNSLRAEDTATYFCARGFIYFDIWGQGTLVTVSS VL: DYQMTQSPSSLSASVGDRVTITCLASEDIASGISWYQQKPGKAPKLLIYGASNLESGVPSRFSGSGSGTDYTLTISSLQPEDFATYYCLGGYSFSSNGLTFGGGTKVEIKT | 0.14

Cited source for all entries: patent US20240228660A1
